Test system: HCT-116 colon
Experiment Notes: NCI tumour cell line growth inhibition, 48 h
Measured TGI by item
Readout Label: TGI

[[record]]
compound = "Cc1ccncc1C(N)=O"
assay_result = "> 100 µM"

[[record]]
compound = "c1cc(N2CCN(c3ccc(C4=NCCCN4)cc3)CC2)ccc1C1=NCCCN1"
assay_result = "> 100 µM"

[[record]]
compound = "O=[N+]([O-])c1ccc(C(O)(C#CCN2CCCC2)c2ccccc2)cc1 (stereo not drawn)"
assay_result = "> 100 µM"


====

Tested on: HOP-92 NSCLC
Experiment Notes: NCI tumour cell line growth inhibition, 48 h; in the data active = GI50 below about 0.43 µM; inactive = the rest
Labels: active, inactive

[[record]]
molecule = "COc1ccc2c(c1)C(=O)c1c-2c(OCCN(C)C)nc2ccccc12"
assayed_system = "HOP-92 NSCLC"
class_label = "inactive"

[[record]]
molecule = "COc1ccc(CC2C(=O)NC(C)C(=O)N(C)C3C(=O)N(C)C(Cc4ccc(O)c(c4)Oc4ccc(cc4)C3O)C(=O)NC(C)C(=O)NC(C)C(=O)N2C)cc1 (stereo unspecified)"
assayed_system = "HOP-92 NSCLC"
class_label = "active"

[[record]]
molecule = "C[C@@H]1Cc2cc(O)ccc2[C@H]2CC[C@]3(C)/C(=C/COCCN(C)C)CC[C@H]3[C@H]12 (tested in a mixture with another compound)"
assayed_system = "HOP-92 NSCLC"
class_label = "active"

[[record]]
molecule = "CCC(=O)Nc1ccc(N2C(=O)/C(=C/c3ccc(OC)cc3)N=C2c2ccccc2)cc1"
assayed_system = "HOP-92 NSCLC"
class_label = "active"

[[record]]
molecule = "O=c1c2cc(F)ccc2sc2c(NCCCNCCO)nc3ccccc3c12"
assayed_system = "HOP-92 NSCLC"
class_label = "inactive"

[[record]]
molecule = "Cc1[nH]c(-c2cc(N)ccc2Cl)c2c1C(=O)CCCC2"
assayed_system = "HOP-92 NSCLC"
class_label = "inactive"


====

Tested on: PC-3 prostate
Experiment Notes: NCI tumour cell line growth inhibition, 48 h
Readout Label: TGI

[[record]]
compound = "Cc1cnc2c(c1C)C(=O)c1ccccc1C2=O"
readout_label = "TGI"
assay_result = "> 100 µM"

[[record]]
compound = "CN1CCN(c2ccc3c(c2)NCC(=O)N3)CC1"
readout_label = "TGI"
assay_result = "> 100 µM"

[[record]]
compound = "COc1cc(-c2nn(-c3cccc(NC(=O)CCN4CCN(Cc5ccccc5)CC4)c3)cc2-c2ccncc2)ccc1Cl"
readout_label = "TGI"
assay_result = "11.6 µM"

[[record]]
compound = "CC(CO)(Nc1ccc([N+](=O)[O-])cc1[N+](=O)[O-])C(=O)O (centres undefined)"
readout_label = "TGI"
assay_result = "> 100 µM"


====

Tested on: RPMI-8226 leukemia
Experiment Notes: NCI tumour cell line growth inhibition, 48 h
Readout Label: TGI

[[record]]
test_smiles = "CCC(=O)Nc1ccc(N2C(=O)/C(=C/c3ccc(OC)cc3)N=C2c2ccccc2)cc1"
readout_label = "TGI"
assay_result = "> 50 µM"

[[record]]
test_smiles = "O=C(O)CCNS(=O)(=O)c1ccc([N+](=O)[O-])cc1"
readout_label = "TGI"
assay_result = "> 100 µM"

[[record]]
test_smiles = "Nc1nc2c(C(=O)O)c3ccc([N+](=O)[O-])cc3c(=O)n2c2ccccc12"
readout_label = "TGI"
assay_result = "> 100 µM"


====

Tested on: COLO 205 colon
Experiment Notes: NCI tumour cell line growth inhibition, 48 h
Measured TGI by item
Readout Label: TGI

[[record]]
compound = "CCOC(=O)C1CCCCN1C(=O)Cc1c[nH]c2ccccc12 (configuration not stated)"
assay_result = "> 100 µM"

[[record]]
compound = "CN1CCN(c2ccc3c(c2)NCC(=O)N3)CC1"
assay_result = "> 100 µM"

[[record]]
compound = "O=Nc1c(-c2c(O)[nH]c3ncccc23)[nH]c2ccccc12"
assay_result = "> 100 µM"

[[record]]
compound = "O=c1[nH]c2nc3ccccc3c(=O)n2/c1=C/c1ccco1"
assay_result = "> 100 µM"

[[record]]
compound = "c1cc(-c2cn3c(n2)SCC3)ccn1"
assay_result = "> 100 µM"

[[record]]
compound = "COc1cccc(/N=N/C(=NNC(=O)c2ccc(C)cc2)c2ccc(N(C)C)cc2)c1"
assay_result = "> 100 µM"

[[record]]
compound = "Cc1ccc(NC(=O)C(=O)C(C(=O)/C=C/c2ccccc2)C2OC(=O)c3ccccc32)c(C)c1 (configuration not stated)"
assay_result = "> 100 µM"

[[record]]
compound = "CN=C1OC2(c3ccccc3)C3=C(OC(=NC)N2C)C(=O)OC3(c2ccccc2)N1C (configuration not stated)"
assay_result = "> 100 µM"

[[record]]
compound = "CCc1c(C)nc2sc3c(N)ncnc3c2c1C"
assay_result = "> 25 µM"

[[record]]
compound = "c1cc(N2CCN(c3ccc(C4=NCCCN4)cc3)CC2)ccc1C1=NCCCN1"
assay_result = "> 100 µM"

[[record]]
compound = "O=C1Cc2c([nH]c3ccc(C(=O)O)cc23)-c2ccccc2N1"
assay_result = "> 100 µM"

[[record]]
compound = "COc1ccc2c(-c3ccnc(Nc4cccc(OC(F)(F)F)c4)n3)cnn2n1"
assay_result = "> 19.9 µM"


====

Measured TGI by item
Test system: BT-549 breast
Experiment Notes: NCI tumour cell line growth inhibition, 48 h
Readout Label: TGI

[[record]]
compound = "C=CCOc1ccc(C2C(C(=O)OC)C(=O)CC(O)(c3ccccc3)C2C(=O)OC)cc1OC (stereo unspecified)"
readout_label = "TGI"
assay_result = "> 100 µM"

[[record]]
compound = "CCN(CC)c1nnc(CCCCCCCCc2nnc(N(CC)CC)o2)o1"
readout_label = "TGI"
assay_result = "> 100 µM"

[[record]]
compound = "O=C1Cc2c([nH]c3ccc(C(=O)O)cc23)-c2ccccc2N1"
readout_label = "TGI"
assay_result = "> 100 µM"

[[record]]
compound = "C=CCC1(C)CCCN(Cc2ccccc2)C1=O (stereo unspecified)"
readout_label = "TGI"
assay_result = "> 10 µM"

[[record]]
compound = "C1CSCCSCCCSCCSCCCSCCSCCCSCCSC1"
readout_label = "TGI"
assay_result = "> 100 µM"

[[record]]
compound = "CO/N=C1/c2sccc2[C@H](NC(=O)C(Cc2ccccc2)NC(=O)OC(C)(C)C)[C@@H]1O (stereo partly specified)"
readout_label = "TGI"
assay_result = "> 100 µM"


====

System: SNB-19 CNS
Experiment Notes: NCI tumour cell line growth inhibition, 48 h
Measured TGI by item
Readout Label: TGI

[[record]]
compound = "O=c1[nH]nc(-c2ccccc2)n1O"
readout_label = "TGI"
assay_result = "> 100 µM"

[[record]]
compound = "COc1cc2ncc3c(nc4sccn43)c2cc1OC"
readout_label = "TGI"
assay_result = "> 100 µM"

[[record]]
compound = "Cc1ccc(C2C3Cc4ccccc4C3=NN2c2ccc(S(=O)(=O)/N=c3\\scc(-c4ccccc4)n3-c3ccccc3)cc2)cc1 (stereo not given)"
readout_label = "TGI"
assay_result = "> 100 µM"

[[record]]
compound = "O=C(c1ccccc1)c1c(CC(O)c2ccncc2)n(C(=O)c2ccccc2)c2ccccc12 (stereo not given)"
readout_label = "TGI"
assay_result = "73.1 µM"

[[record]]
compound = "Cn1c(=O)n2n(c1=O)C(C)(C13CC4CC(CC(C4)C1)C3)C13CC4CC(CC1C4)CC23 (stereo not given)"
readout_label = "TGI"
assay_result = "> 100 µM"

[[record]]
compound = "c1cc(-c2cn3c(n2)SCC3)ccn1"
readout_label = "TGI"
assay_result = "> 100 µM"

[[record]]
compound = "ClC1=C(Cl)C(Cl)(Cl)c2c3c(c4c(c21)C(Cl)(Cl)C(Cl)=C4Cl)C(Cl)(Cl)C(Cl)=C3Cl"
readout_label = "TGI"
assay_result = "> 100 µM"

[[record]]
compound = "CC1(C)CC(=O)c2c(nc3c4c([nH]c(-c5ccc(Br)cc5)c24)CC(C)(C)C3)C1"
readout_label = "TGI"
assay_result = "> 100 µM"

[[record]]
compound = "CN(C)CCc1c2c(nc3ccccc13)C(=O)c1cccnc1C2=O"
readout_label = "TGI"
assay_result = "3.88 µM"

[[record]]
compound = "O=C1N[C@@H]2C(=C[C@H](O)[C@@H](O)[C@H]2O)c2cc3c(c(O)c21)OCO3"
readout_label = "TGI"
assay_result = "0.0665 µM"

[[record]]
compound = "CC(C)/C(Cl)=N/OC(=O)Nc1ccc(Cl)c(Cl)c1"
readout_label = "TGI"
assay_result = "50.4 µM"

[[record]]
compound = "COc1cc2cc(Oc3ccc(NC(=O)c4ccc(Cl)c(Cl)c4)cc3)c(C)nc2cc1OC"
readout_label = "TGI"
assay_result = "> 100 µM"

[[record]]
compound = "Cc1cc(C)c(C2CNCc3cc4c(cc32)CNCC4c2c(C)cc(C)cc2C)c(C)c1 (stereo not given)"
readout_label = "TGI"
assay_result = "11 µg/mL"

[[record]]
compound = "N#CC1(C#N)C(c2ccccc2)C=CC12OCCCO2 (stereo not given)"
readout_label = "TGI"
assay_result = "> 100 µM"

[[record]]
compound = "CC(=O)/C(=C\\c1ccccc1O)C(=O)Nc1ccccc1C"
readout_label = "TGI"
assay_result = "54.3 µM"


Entry source: PubChem BioAssay (NCI)
